# Test summary: Uncompetitive inhibition of rat liver thioredoxin reductase using DTNB as substrate measured for 50 mins at 5 mins intervals in presence of NADPH by Lineweaver-Burk plot analysis
pKi: −log10 of the molar value.

{"Smiles representation": "O=c1ccc2nc(C(F)(F)F)nn(-c3ccccc3)c-2c1", "pKi": 6.11}

---

# Test summary: Selectivity ratio of IC50 for human GM00637 cells to IC50 for human MCF7 cells
# Assay type: ADME, cell-based
# Experimental context: GM00637 cells versus MCF7 cells, read-out: Ratio IC50
Test readout: selectivity ratio

{"Smiles representation": "O=c1ccc2nc(C(F)(F)F)nn(-c3ccccc3)c-2c1", "Reported value": 3}

---

# maps each entry to its pIC50
# Test summary: Cytotoxicity against human DU145 cells assessed as reduction in cell viability after 72 hrs by MTT assay
# Format: functional, cell-based
# Experimental context: DU-145, 72 h
pIC50: −log10 of the molar value.
Test readout: pIC50

{"Smiles representation": "O=c1cc2n(-c3ccccc3)nc(-c3ccccc3)nc-2cc1N1CCOCC1", "Reported value": 5.49}
{"Smiles representation": "CCNc1cc2nc(-c3ccccc3)nn(-c3ccccc3)c-2cc1=O", "Reported value": 6.66}
{"Smiles representation": "C[C@@H]1CO[C@@H]2C3=C(C(=O)C=CC3=O)[C@H]3OC(=O)[C@@H]4CC[C@H]5C1CC[C@@]25[C@@H]34", "Reported value": 6.37}

---

# Test summary: Inhibition of recombinant human TRX1/human placental thioredoxin reductase using DTNB as substrate in presence of NADPH by spectrophotometric method
Test readout: IC50 (nM)

{"Smiles representation": "C[C@@H]1CO[C@@H]2C3=C(C(=O)C=CC3=O)[C@H]3OC(=O)[C@@H]4CC[C@H]5C1CC[C@@]25[C@@H]34", "Test readout": "IC50", "Unit": "nM", "Reported value": 170}

---

# Test summary: Selectivity ratio of IC50 for human GM00637 cells to IC50 for human DU145 cells
# Format: ADME, cell-based
# Experimental context: GM00637 cells versus DU145 cells, read-out: Ratio IC50

{"Smiles representation": "O=c1ccc2nc(C(F)(F)F)nn(-c3ccccc3)c-2c1", "selectivity ratio": 2}

---

# Test summary: Cytotoxicity against human DU145 cells assessed as reduction in cell viability after 72 hrs by MTT assay
# Assay type: functional, cell-based
# Experimental context: DU-145, 72 h
pIC50: −log10 of the molar value.
Where pIC50 equals or exceeds 6, the correct label is Fulfilled; where it does not, the label is Not fulfilled.

{"Smiles representation": "CCOc1cc2nc(-c3ccccc3)nn(-c3ccccc3)c-2cc1=O", "Class name": "Not fulfilled"}
{"Smiles representation": "Nc1cc2nc(-c3ccccc3)nn(-c3ccccc3)c-2cc1=O", "Class name": "Not fulfilled"}
{"Smiles representation": "COc1cc2nc(-c3ccccc3)nn(-c3ccccc3)c-2cc1=O", "Class name": "Not fulfilled"}
{"Smiles representation": "O=c1ccc2nc(-c3ccccc3)nn(-c3ccccc3)c-2c1", "Class name": "Fulfilled"}
{"Smiles representation": "CCN(CC)c1cc2nc(-c3ccccc3)nn(-c3ccccc3)c-2cc1=O", "Class name": "Not fulfilled"}
{"Smiles representation": "CC(=O)Nc1cc2nc(-c3ccccc3)nn(-c3ccccc3)c-2cc1=O", "Class name": "Not fulfilled"}
{"Smiles representation": "O=c1cc2n(-c3ccccc3)nc(-c3ccccc3)nc-2cc1N1CCCC1", "Class name": "Not fulfilled"}
{"Smiles representation": "O=c1cc2n(-c3ccccc3)nc(-c3ccccc3)nc-2cc1N1CCCCC1", "Class name": "Fulfilled"}

---

Listed below: IC50 values for each entry.
# Test summary: Cytotoxicity against human DU145 cells assessed as reduction in cell viability after 72 hrs by MTT assay
# Assay type: functional, cell-based
# Experimental context: DU-145, 72 h

{"Smiles representation": "O=c1cc2n(-c3ccccc3)nc(-c3ccccc3)nc-2cc1N1CCSCC1", "Unit": "nM", "IC50": 1220}
{"Smiles representation": "O=c1ccc2nc(C(F)(F)F)nn(-c3ccccc3)c-2c1", "Unit": "nM", "IC50": 850}
{"Smiles representation": "CNc1cc2nc(-c3ccccc3)nn(-c3ccccc3)c-2cc1=O", "Unit": "nM", "IC50": 980}
